# assayed target: Prostaglandin G/H synthase 1 (Rattus norvegicus)
# test protocol: Inhibition of COX-1 in rat leukocytes assessed as reduction in PGE2 production from arachidonic acid at 10 nM preincubated for 10 mins by EIA
# Assay type: cell-based
Calls of active or inactive are those of the source. The rule behind the calls is not given here.

- molecule smiles: "COc1ccc(-c2ccc(-c3cccc(NC(=O)[C@H](C)NC(=O)OC(C)(C)C)c3)o2)cc1"
  inhibition: "inactive"
- molecule smiles: "COc1ccc(-c2ccc(-c3cccc(NC(=O)[C@@H](NC(=O)OC(C)(C)C)C(C)C)c3)o2)cc1"
  inhibition: "inactive"
- molecule smiles: "COc1ccc(-c2ccc(-c3cccc(NC(=O)[C@H](CSCc4ccccc4)NC(=O)OCc4ccccc4)c3)o2)cc1"
  inhibition: "inactive"
